B1: library; numbered along this chain (parent)
chain: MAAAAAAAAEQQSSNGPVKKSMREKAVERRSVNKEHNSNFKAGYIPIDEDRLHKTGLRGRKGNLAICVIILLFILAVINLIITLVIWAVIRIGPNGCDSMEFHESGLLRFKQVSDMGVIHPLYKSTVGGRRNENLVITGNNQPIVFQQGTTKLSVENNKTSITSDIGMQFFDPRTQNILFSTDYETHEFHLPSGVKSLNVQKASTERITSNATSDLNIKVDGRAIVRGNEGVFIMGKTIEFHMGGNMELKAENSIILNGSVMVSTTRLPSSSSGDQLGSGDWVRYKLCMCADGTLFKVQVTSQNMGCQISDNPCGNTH

variants of: B1; assay: SGCB cell-surface expression functional score (HA stain, bin4 vs bin1, normalised to synonymous) (log10 ratio); higher = more cell-surface SGCB (functional)
SGCB cell-surface expression functional score (log10) by entry:
Please state the value as a number alone, without comment.

Please review the following examples before continuing.
SGCB cell-surface expression functional score (log10) lookup needed for `L268N` , thanks.
0

What do we get for `I74H` ?
0.05

Another: `H190F`
0.15

What would you report for `M22H` ?
0.19

Now the variant `I234M`
0.48

---
Fill in the blank: the reported SGCB cell-surface expression functional score (log10) of `A8W` is ____.
1.01

Entry `D311G` please
0.11

Please do the same for `Q148V` as well.
0.28

Quick one: `L249K`
-1.29
